ASSAY EXPLANATION: PK in rats, intravenous administration
Assay type: in vivo
REPORTED CONDITIONS: male, Sprague-Dawley, plasma, 1 mg/kg, rat, read-out: Vdss
Counter-ions that a name gives are not always drawn.

- MOLECULE: "COC1(c2cc(S(=O)(=O)NC(=O)Nc3c4c(cc5c3CCC5)CCC4)nn2C)CCC1 [Example 51]"
  Vd (L/kg): 0.29
- MOLECULE: "CC(C)n1cnc(S(=O)(=O)NC(=O)Nc2c3c(cc4c2CCC4)CCC3)n1 [Example 46, sodium salt]"
  Vd (L/kg): 0.45
- MOLECULE: "[2H]C([2H])([2H])C([2H])(n1ccc(S(=O)(=O)NC(=O)Nc2c3c(cc4c2CCC4)CCC3)n1)C([2H])([2H])[2H] [Example 20, potassium salt]"
  Vd (L/kg): 0.25
- MOLECULE: "COC(C)(C)c1cc(S(=O)(=O)NC(=O)Nc2c(C(C)C)cc(Cl)cc2C(C)C)nn1C [Example 83]"
  Vd (L/kg): 2.23

Sourced from patent US20220106289A1
